The reported measurements were obtained from PubChem BioAssay.

protocol-text: growth suppression of PTEN-deleted HCT116, pilot screen, cell-based, HCT116 clonal line, CellTiter-Glo (AID 824);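 further: 0% = 20 µM Hyamine control and 100% = vehicle cell control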
experimental-parameters: 60 h, at 10 µM, stronger effect = lower value
Records with an inconclusive call do not appear.
property-measured: viability (%)
The answer is to be given in %; state only the numeric part.

Some solved cases for reference:
Cc1ccc(C(=O)NCCn2cc(SCC(=O)Nc3nnc(C)s3)c3ccccc32)cc1 :: 81.3
N=c1sccn1CC(=O)Nc1ccccc1-c1ccccc1 :: 95.8
COc1ccc(N(CC(=O)Nc2cc(OC)ccc2OC)S(=O)(=O)c2c(C)nn(C)c2C)cc1 :: 81

// sample O=C(NCCN1CCOCC1)c1ccc2c(c1)N(Cc1ccc(F)cc1)C(=O)CS2 , its viability was 88.9

// sample O=C(CSc1ncccn1)NCCc1ccccc1 , its viability was 97.2

// sample Cc1cc(O)c(C=Nc2cccc(Cl)c2)c(=O)o1 , its viability was 94.1

// sample CCCn1c(CN2CCCCC2CC)nc2c1c(=O)n(C)c(=O)n2C (stereo not drawn) , its viability was 90.4

// sample CCN(CC)c1ccc(C=Nc2ccc(C#N)cc2)c(O)c1 , its viability was 96.3

// sample COc1cccc(-c2nc(CS(=O)(=O)CC(=O)NCCC(C)C)c(C)o2)c1 , its viability was 89.1

// sample O=C(Nc1ccon1)c1cccc(C(F)(F)F)c1 , its viability was 101

// sample COc1ccc(Cl)cc1NC(=O)C1CSC(c2ccncc2)=N1 (stereo not drawn) , its viability was 61.5
